Test system: OVCAR-5 ovarian
assayRemarks: NCI tumour cell line growth inhibition, 48 h; in the data active = GI50 below about 0.43 µM; inactive = the rest
Outcome codes: label 1 (active), label 0 (inactive)

compound	label
C[C@@H]1C/C=C\C(=O)O[C@H](/C=C/C#C/C=C/C(C)(C)[C@@H](O)c2cccc(O)c2Br)[C@@H](C)/C=C/[C@H](C)C[C@H](OC(N)=O)C1	label 1
COc1ccc2cc(-c3c(-c4ccncc4)nc(-c4ccc(S(C)=O)cc4C)n3C)ccc2c1 (stereo not given)	label 0
O=C(O)C1C(C(=O)O)C2(Cl)C(Cl)=C(Cl)C1(Cl)C2(Cl)Cl.[Cd] (stereo not given)	label 0
CN(C)CCCC1(c2ccc(F)cc2)OCc2cc(-c3cncc4ccccc34)ccc21 (stereo not given)	label 0
Cc1ccc(-n2c3c(c4c(CN5CCOCC5)c(O)ccc42)CCc2ccccc2C3=O)cc1	label 0
Fc1cc(-c2nnc3n2N=C(c2ccc(Cl)cc2Cl)CS3)c(Cl)cc1Cl	label 0
CC[C@@]1(O)C(=O)OCc2c1cc1n(c2=O)Cc2cc3c(N)cccc3nc2-1	label 1
O=C(CCN1CCCC1)Nc1ccc2c(Nc3ccccc3)c3ccccc3nc2c1	label 0
COC(=O)[C@H](Cc1ccccc1)NC(=O)c1csc([C@@H](C[C@H](C(C)C)N(C)C(=O)[C@@H](NC(=O)[C@H]2CCCN2C)C2CC2)OC(C)=O)n1	label 0
COc1ccc(C(=O)C[C@]2(O)C(=O)Nc3c(Cl)ccc(Cl)c32)cc1	label 0

---

Test system: SW-620 colon
assayRemarks: NCI tumour cell line growth inhibition, 48 h

molecule	GI50
CN(C)C/C=C/C(=O)Nc1ccc(C(=O)N2CCC[C@@H](Nc3ncc(Cl)c(-c4c[nH]c5ccccc45)n3)C2)cc1	191 nM
O=C(Cc1ccc(/C=C/C(=O)c2ncc[nH]2)cc1)Nc1ccc(C(F)(F)F)cc1	1350 nM
O=C(Nc1cc(S(=O)(=O)c2ccc(Cl)cc2)ccc1Cl)c1cc(I)cc(I)c1O	16700 nM
Fc1cc(-c2nnc3n2N=C(c2ccc(Cl)cc2Cl)CS3)c(Cl)cc1Cl	36800 nM
COc1ccc(NC(=O)c2sc3nc4c(cc3c2N)CCCC4)cc1	429 nM
CC(=O)[CH-]C(=O)c1ccccc1.CC(=O)[CH-]C(=O)c1ccccc1.[CH2-]CCC.[CH2-]CCC.[Sn+4]	283 nM
CN(C)CCCC1(c2ccc(F)cc2)OCc2cc(-c3cncc4ccccc34)ccc21 (centres undefined)	3080 nM
O=C(CCN1CCCC1)Nc1ccc2c(Nc3ccccc3)c3ccccc3nc2c1	232 nM
Nc1ccn([C@@H]2C(F)=C(CO)[C@@H](O)[C@H]2O)c(=O)n1	546 nM

---

GI50 for assorted compounds
Test system: SK-MEL-2 melanoma
assayRemarks: NCI tumour cell line growth inhibition, 48 h
readoutKind: GI50

compound	testResult
CC1(C)C2CCC13C(=O)C1OC3(C2)C2C(=O)c3c(O)cccc3C(=O)C12 (stereo not given)	3690 nM
CC12OC(C(=O)C13CCC3)C1C(=O)c3ccccc3C(=O)C12 (stereo not given)	> 100000 nM
C=CC(=O)Nc1cccc(Nc2nc(Nc3ccc(OCCOC(F)F)cc3)ncc2F)c1	1800 nM
COc1ccc(-c2cc(/C=C/C(=O)c3cc(OC)c(OC)c(OC)c3)[nH]n2)cc1OC	2690 nM
Cc1ccc(/C=C2\CNC/C(=C\c3ccc(C)cc3)C2=O)cc1	1900 nM

---

Test system: HS 578T breast
assayRemarks: NCI tumour cell line growth inhibition, 48 h; in the data active = GI50 below about 0.43 µM; inactive = the rest
Outcomes: y for active, n for inactive

compound	label
O=C(O)C1C(C(=O)O)C2(Cl)C(Cl)=C(Cl)C1(Cl)C2(Cl)Cl.[Cd] (stereo not given)	n
Fc1c[c-]c(-c2ccccn2)c(F)c1.[CH3-].[Pt+2].c1ccc(P(C[PH+](c2ccccc2)c2ccccc2)c2ccccc2)cc1	n
COc1ccc(-c2nc3c(c(=O)n2C(C)=O)C(c2ccc(Cl)cc2)c2sc4c(Cl)cccc4c2O3)cc1 (stereo not given)	n
Nc1ccn([C@@H]2C(F)=C(CO)[C@@H](O)[C@H]2O)c(=O)n1	n
C[C@@H]1C/C=C\C(=O)O[C@H](/C=C/C#C/C=C/C(C)(C)[C@@H](O)c2cccc(O)c2Br)[C@@H](C)/C=C/[C@H](C)C[C@H](OC(N)=O)C1	y

---

Test system: OVCAR-8 ovarian
assayRemarks: NCI tumour cell line growth inhibition, 48 h
Here, each record is paired with measured TGI data.

molecule	TGI
OC12CCCCCC1(N1CCOCC1)c1ccccc12 (stereo unspecified)	> 100 µM
NS(=O)(=O)c1ccc(NC(=O)c2cccn3c(=O)c4ccccc4nc23)cc1	> 100 µM
CC[P+]1(CC)CCCC1	> 100 µM
NC(=O)c1cc(I)ccc1NC(=O)COc1ccccc1	> 100 µM
COc1ccc2[nH]c3c(=O)[nH]ncc3c2c1	> 100 µM
NS(=O)(=O)c1cc(S(N)(=O)=O)c(NC(=O)N(c2ccccc2)c2ccccc2)c(Cl)c1Cl	34.2 µM

---

Test system: CAKI-1 renal
assayRemarks: NCI tumour cell line growth inhibition, 48 h

compound	TGI
O=C(/C=C/c1ccco1)c1cccc(C(=O)/C=C/c2ccco2)n1	> 100 µM
COc1cc(-n2cc(-c3cc(O)c(C/C=C(\C)CCC=C(C)C)c(O)c3)nn2)cc2c1O[C@]1(C)CC[C@@H](O)C(C)(C)[C@H]1C2	> 100 µM
NC(=S)N/N=C\CC(O)(C(F)(F)F)C(F)(F)F	> 10 µM
CCCCCCOP(=O)(OCCCCCC)OC(C(=O)OC)C(F)(F)F (centres undefined)	> 100 µM
Nc1ncnc2c1c(-c1ccc(Oc3ccccc3)cc1)nn2C[C@@H]1SSC[C@@H]1O	5.01 µM
Cc1ccc(/C=C2\CN(C)CC3C2=NC(=S)NC3c2ccc(C)cc2)cc1 (centres undefined)	> 100 µM
CCN(CC)CCOc1ccc(/C=C2\CC3C4CC=C5C[C@@H](OC(C)=O)CC[C@]5(C)C4CC[C@]3(C)C2=O)cc1OC (some centres undefined)	2.52 µM
CCOC(=O)c1nc2ccccc2nc1NCc1ccc(Cl)cc1Cl	> 100 µM
CCCCCCCCCCCCCCCCOCC(Cl)COP(=O)(O)OP(=O)(O)OCC1OC(n2cnc3c(N)ncnc32)C(O)C1O (centres undefined)	> 100 µM

---

Tested on: NCI-H460 lung
assayRemarks: NCI tumour cell line growth inhibition, 48 h

compound	subjectOfTest	TGI
CNc1ccc(Cl)cc1S(=O)(=O)c1ccccc1[N+](=O)[O-]	NCI-H460 lung	> 100 µM
COc1ccc2c(c1)nc1n2C(c2ccc(F)cc2)SC1 (stereo not given)	NCI-H460 lung	67.7 µM
Cc1cc(=O)oc2cc(OCCn3c(C)nn(-c4ccc(Cl)cc4)c3=O)ccc12	NCI-H460 lung	> 100 µM
O=C1CC2(CCNCC2)C(=O)N1N1CCOCC1	NCI-H460 lung	> 100 µM
COC(=O)C1(F)C(=O)NC(=O)NC1OC (stereo not given)	NCI-H460 lung	> 100 µM
CCOC(=O)/C(C#N)=C/N(CC)/N=C/c1ccccc1	NCI-H460 lung	> 100 µM
Cc1cc2occ(-c3ccc(Cl)cc3)c2c(=O)o1	NCI-H460 lung	> 100 µM
Fc1c[c-]c(-c2ccccn2)c(F)c1.[CH3-].[Pt+2].c1ccc(P(C[PH+](c2ccccc2)c2ccccc2)c2ccccc2)cc1	NCI-H460 lung	1.54 µM
CNc1ccc(S(=O)Nc2ccccc2)cc1 (stereo not given)	NCI-H460 lung	> 100 µM
C/C(=C\Cc1cc(O)ccc1O)CCc1c(C)cc(O)c(C=O)c1C	NCI-H460 lung	67.2 µM
O=C1C=C(N2CCN(c3ccccn3)CC2)C(=O)c2c(O)ccc(O)c21	NCI-H460 lung	38.1 µM
CC/C(Cl)=N\OC(=O)Nc1ccc(F)cc1F	NCI-H460 lung	85.8 µM
CCc1cccc(CC)c1/C=C/c1cncc(C(=O)NC)c1	NCI-H460 lung	> 25 µM
CO[P@]1(=O)O[C@@H](c2ccccc2)[C@H](O)[C@@]1(O)c1ccccc1	NCI-H460 lung	> 100 µM
CCOCNc1ccc(N2C(=O)/C(=C/c3ccc(N(CC)CC)cc3)N=C2c2ccccc2)cc1	NCI-H460 lung	> 100 µM
CC(C)=CCC[C@@H](C)c1c2[nH]c3ccccc3sc-2c(C)c(=O)c1=O	NCI-H460 lung	> 27 µM
CC(C)(C)[Si](C)(C)OCC1OC(n2cnc3c(N)ncnc32)C(O)C1O (stereo not given)	NCI-H460 lung	> 100 µM
COC(=O)C(C(=O)C(=O)NC1Nc2ccc(C)cc2S1)c1nc2ccc(Cl)cc2[nH]c1=O (stereo not given)	NCI-H460 lung	> 100 µM
CC1=C(C(=O)CC(=O)C(=O)NC2C3CC4CC(C3)CC2C4)Sc2ccccc2N1 (stereo not given)	NCI-H460 lung	> 100 µM
Cc1cc2n([O-])cccc-2[n+](=O)c1	NCI-H460 lung	> 100 µM
